- Measurement Notes: M. tuberculosis H37Rv growth inhibitors, H37Rv strain (AID 1626);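 further: bacteria incubated seven days before Alamar blue readout; 0% = bacteria only wells and 100% = bacteria with antibiotic wells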
- Measurement Conditions: hits give high values, concentration not given here
About 2,000 (0.91%) of roughly 220,000 compounds were called active. Roughly 2% stayed inconclusive and do not appear here. Only a sample is shown. Results with a measured potency or affinity are listed apart.
Recorded Endpoint: inhibition

For reference, reported inhibition for CC1Cc2ccccc2N1C(=O)COC(=O)c1ccc(O)cc1 (configuration not stated) stands at 2.09% (inactive)

For reference, reported inhibition for N#Cc1cncc(-c2ccc3c(c2)OCCOCCOCCOCCOCCO3)n1 stands at 5.9% (inactive)

For reference, reported inhibition for COc1ccc(/C=N/NC(=O)Nc2nonc2N)cc1 stands at -4.3% (inactive)

For reference, reported inhibition for O=C(NCc1csc(-c2cccs2)n1)Nc1ccc(F)cc1F stands at -1.75% (inactive)

For reference, reported inhibition for O=C(Nc1nnc(-c2ccncc2)o1)C1CCCCC1 stands at 0.18% (inactive)

For reference, reported inhibition for O=C(/C=C/NNC(=O)c1ccc(Cl)cc1)c1ccccc1 stands at 2.77% (inactive)

For reference, reported inhibition for CN(CCc1ccccn1)c1ncnc2[nH]ncc12 stands at 2.15% (inactive)

For reference, reported inhibition for Cc1cc(C(=O)OCC(=O)N2c3ccccc3CC2C)c(C)o1 (configuration not stated) stands at 7.82% (inactive)

For reference, reported inhibition for Nc1nc(-c2ccc3c(c2)OCCO3)cs1 stands at 78.2% (inactive)

For reference, reported inhibition for O=C(N/N=C/c1sc(N2CCOCC2)nc1-c1ccccc1)c1ccccc1F stands at -7.96% (inactive)

For reference, reported inhibition for COc1cc(C2SC(C)C(=O)N2CCc2ccccc2)cc(OC)c1OC (configuration not stated) stands at 6.28% (inactive)

For reference, reported inhibition for COc1ccccc1NC(=O)N1CCN(c2ccnc3cc(Cl)ccc23)CC1 stands at 9.81% (inactive)

###

Provide the reported inhibition of each item.
- Measurement Notes: M. tuberculosis H37Rv growth inhibitors, H37Rv strain (AID 1626);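 further: bacteria incubated seven days before Alamar blue readout; 0% = bacteria only wells and 100% = bacteria with antibiotic wells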
- Measurement Conditions: hits give high values, concentration not given here
The whole screen tested about 220,000 compounds, of which about 2,000 (0.91%) were called active. Roughly 2% stayed inconclusive and do not appear here. These entries were drawn from the full list. Potency and affinity values are given separately.
Only the number, expressed in %, is required.

For reference, reported inhibition for O=C(CCN1C(=O)S/C(=C\c2cccs2)C1=O)NC1=NCCS1 stands at -3.39

For reference, reported inhibition for COc1ccc(CCC(=O)Nc2ccc3c(c2)OCCO3)cc1 stands at -2.09

For reference, reported inhibition for Cc1ccc2nsnc2c1S(=O)(=O)N1CCCC1 stands at -7.86

For reference, reported inhibition for CO/N=C(/CS(=O)Cc1ccc(Cl)cc1)c1ccc(Cl)cc1 (centres undefined) stands at 1.17

For reference, reported inhibition for CN(C)c1ccc(C=C2C(=O)OC(C)(C)OC2=O)cc1 stands at -0.63

For reference, reported inhibition for O=C(Nc1nc2ccccc2[nH]1)c1cccs1 stands at 56.3

For reference, reported inhibition for Cc1cc(NC(=O)c2cccs2)n(-c2nc3ccccc3[nH]2)n1 stands at 94.8

For reference, reported inhibition for CCc1cccc2c(C(=O)COC(=O)c3ccccc3)c[nH]c12 stands at 7.6

For reference, reported inhibition for CC(=O)Nc1nc2ccccc2[nH]1 stands at -9.36

For reference, reported inhibition for CCc1ccc(Oc2ncnc(N)c2[N+](=O)[O-])cc1 stands at -1.27

For reference, reported inhibition for CC(C)C(=O)NC(CC(=O)O)c1ccccc1 (centres undefined) stands at -15.2

For reference, reported inhibition for CC(=O)NCCC(=O)Nc1ccc(F)cc1C stands at -1.47

For reference, reported inhibition for CCSCc1nnc(SCC(=O)Nc2ccc(OC)cc2)n1C stands at 7.37

For reference, reported inhibition for COc1ccccc1C(=O)Nc1ccc(N2CCN(Cc3ccccc3)CC2)cc1 stands at 40.9

meta.source: PubChem BioAssay AID1626
